- Tested on: CLZ3 (HCA2 human fibroblast dual HR-NHEJ reporter)
- PROTOCOL_SUMMARY: NHEJ repair efficiency (GFP+ cells) relative to control (log10 fold); higher = more non-homologous end joining
- COND: 5 µM; doxycycline 0.5 ug/mL
Mark Fulfilled for reported NHEJ repair efficiency (log10) of 0.1 or greater; mark Not fulfilled for anything smaller.

(Q) API: above_or_equal(metric=NHEJ repair efficiency (log10), cutoff=0.1) for item C[C@@]12C[C@@]3(O)O[C@@H](O1)[C@]1(COC(=O)c4ccccc4)[C@H]3C[C@@]12O[C@@H]1O[C@H](CO)[C@@H](O)[C@H](O)[C@H]1O
(A) Fulfilled

(Q) What do we get for COc1c(O)cc2c(c1O)C(=O)c1c(cc(C)c(O)c1OC)C2=O [Aurantio-obtusin] ?
(A) Fulfilled

(Q) What do we get for CC1(C)[C@@H](O[C@H]2O[C@H](C(=O)O)[C@@H](O)[C@H](O)[C@H]2O[C@@H]2O[C@H](C(=O)O)[C@@H](O)[C@H](O)[C@H]2O)CC[C@]2(C)[C@H]3C(=O)C=C4[C@@H]5C[C@@](C)(C(=O)O)CC[C@]5(C)CC[C@@]4(C)[C@]3(C)CC[C@@H]12 [Glycyrrhizic acid] ?
(A) Fulfilled

(Q) What do we get for COC(=O)C1=CO[C@@H](O)[C@@H]2C(CO)=CC[C@H]12 ?
(A) Not fulfilled

(Q) What do we get for C[C@@H]1O[C@@H](O[C@H]2[C@H](Oc3cc(O)c(C(=O)CCc4ccc(O)cc4)c(O)c3)O[C@H](CO)[C@@H](O)[C@@H]2O)[C@H](O)[C@H](O)[C@H]1O ?
(A) Not fulfilled

(Q) What do we get for O=c1cc(-c2ccccc2)oc2cc(O)cc(O)c12 ?
(A) Not fulfilled

(Q) What do we get for COc1ccc(-c2oc3c(CC=C(C)C)c(O[C@@H]4O[C@H](CO)[C@@H](O)[C@H](O)[C@H]4O)cc(O)c3c(=O)c2O[C@@H]2O[C@@H](C)[C@H](O)[C@@H](O)[C@H]2O)cc1 ?
(A) Not fulfilled

(Q) What do we get for OCCc1ccc(O)cc1 ?
(A) Fulfilled

(Q) What do we get for O=C(/C=C/c1ccc(O)c(O)c1)O[C@@H]1C[C@](O)(C(=O)O)C[C@@H](O)[C@H]1O ?
(A) Not fulfilled

(Q) What do we get for C/C=C(\C)C(=O)OC1c2c(ccc3ccc(=O)oc23)OC(C)(C)C1OC(=O)/C(C)=C/C (configuration not stated) ?
(A) Not fulfilled

(Q) What do we get for CC1(C)CC[C@]2(C(=O)O[C@@H]3O[C@H](CO)[C@@H](O)[C@H](O)[C@H]3O)CC[C@]3(C)C(=CC[C@@H]4[C@@]5(C)CC[C@H](O[C@@H]6O[C@H](C(=O)O)[C@@H](O)[C@H](O)[C@H]6O[C@@H]6O[C@H](CO)[C@@H](O)[C@H](O)[C@H]6O)C(C)(C)[C@@H]5CC[C@]43C)[C@@H]2C1 [Ginsenoside Ro] ?
(A) Fulfilled

(Q) What do we get for COc1ccc(-c2oc3cc(OC)c(OC)c(O)c3c(=O)c2OC)cc1O ?
(A) Not fulfilled

====

- Test system: CLZ3 (HCA2 human fibroblast dual HR-NHEJ reporter)
- PROTOCOL_SUMMARY: HR repair efficiency (tdTomato+ cells) relative to control (log10 fold); higher = more homologous recombination
- COND: 5 µM; doxycycline 0.5 ug/mL
Counter-ions that a name gives are not always drawn.
Task for the reader: assign each of the following compounds its reported HR repair efficiency (log10).
Answer with a number only.

(Q) Name the recorded HR repair efficiency (log10) for COc1c(O[C@@H]2O[C@H](CO)[C@@H](O)[C@H](O)[C@H]2O)cc2oc(-c3ccc(O)cc3)cc(=O)c2c1O .
(A) 0.0763

(Q) What do we get for O=C(O)c1ccc(O)c(O)c1 [3,4-Dihydroxybenzoic acid] ?
(A) -0.033

(Q) What do we get for O=C(/C=C/C=C/c1ccc2c(c1)OCO2)N1CCCCC1 ?
(A) 0.0832

(Q) What do we get for CC(/C=C/C=C(\C)C(=O)O[C@@H]1O[C@H](CO[C@@H]2O[C@H](CO)[C@@H](O)[C@H](O)[C@H]2O)[C@@H](O)[C@H](O)[C@H]1O)=C\C=C\C=C(C)\C=C\C=C(/C)C(=O)O[C@@H]1O[C@H](CO[C@@H]2O[C@H](CO)[C@@H](O)[C@H](O)[C@H]2O)[C@@H](O)[C@H](O)[C@H]1O ?
(A) 0.0109

(Q) What do we get for COc1cc(O)c(CC=C(C)C)c(O)c1C(=O)/C=C/c1ccc(O)cc1 ?
(A) 0.0483

(Q) What do we get for O=C1C[C@@H](c2ccc(O)c(O)c2)Oc2cc(O)cc(O)c21 ?
(A) 0.0227

(Q) What do we get for C[N+]1(C)CCCC1C(=O)O (configuration not stated) [Stachydrine Hydrochloride] ?
(A) 0.12
